pIC50 values by entry
Molecular target: High affinity cGMP-specific 3',5'-cyclic phosphodiesterase 9A (Homo sapiens, UniProt O76083)
Sequence (O76083 whole entry): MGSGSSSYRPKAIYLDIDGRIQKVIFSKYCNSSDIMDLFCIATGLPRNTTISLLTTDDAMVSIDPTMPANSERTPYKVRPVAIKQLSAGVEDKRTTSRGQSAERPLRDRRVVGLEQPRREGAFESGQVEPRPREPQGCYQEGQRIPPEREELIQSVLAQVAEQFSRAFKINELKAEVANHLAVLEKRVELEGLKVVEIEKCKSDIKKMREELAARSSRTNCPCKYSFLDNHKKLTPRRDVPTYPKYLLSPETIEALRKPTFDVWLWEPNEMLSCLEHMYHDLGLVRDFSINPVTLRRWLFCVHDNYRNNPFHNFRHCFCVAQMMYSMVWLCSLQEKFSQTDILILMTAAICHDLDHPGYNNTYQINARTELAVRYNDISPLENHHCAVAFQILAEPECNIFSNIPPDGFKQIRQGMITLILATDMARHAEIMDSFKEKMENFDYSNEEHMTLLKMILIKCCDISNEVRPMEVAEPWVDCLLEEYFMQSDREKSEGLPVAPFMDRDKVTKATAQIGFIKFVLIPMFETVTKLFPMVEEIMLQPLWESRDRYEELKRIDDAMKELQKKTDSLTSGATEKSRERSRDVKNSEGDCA
Test: Inhibition of PDE9 (unknown origin)
# pIC50 = -log10(concentration in molar units)

Solved entries:
C[C@H]1CN(Cc2ccc(/C=C/C(=O)NO)cc2)C[C@@H]1c1nc2c(cnn2C2CCOCC2)c(=O)[nH]1	8.10
C[C@H]1CN(Cc2ccc(C(=O)NO)cc2)C[C@@H]1c1nc2c(cnn2C2CCCC2)c(=O)[nH]1	6.97

Let us move to another entry and its pIC50.
Record summary for C[C@@H](c1nc2c(cnn2C2CCCC2)c(=O)[nH]1)N1CC(Cc2ccc(C(=O)Nc3ccccc3N)cc2)C1 : reported pIC50 = 7.24
